meta.source: the supplement of paper PMC7125110

B1: glmS ribozyme (parent)
chain: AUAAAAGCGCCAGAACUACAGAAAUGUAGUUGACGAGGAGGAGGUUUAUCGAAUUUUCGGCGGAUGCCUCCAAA

# Variants of: B1
# protocol-description: self-cleavage kobs at 40 uM GlcN6P; higher = faster cleavage; RNA array
# test-parameters: with glucosamine-6-phosphate
Fewer inactive variants are shown than the library holds.
assay-metric: self-cleavage kobs at 40 uM GlcN6P

[
  {
    "mutation-list": "A12U C16G U56G G59U",
    "self-cleavage kobs at 40 uM GlcN6P": "< 1e-05 s⁻¹"
  },
  {
    "mutation-list": "U45G G63U",
    "self-cleavage kobs at 40 uM GlcN6P": "< 1e-05 s⁻¹"
  },
  {
    "mutation-list": "C8U G13C G51A",
    "self-cleavage kobs at 40 uM GlcN6P": "< 1e-05 s⁻¹"
  },
  {
    "mutation-list": "A14G G29U A36G",
    "self-cleavage kobs at 40 uM GlcN6P": "< 1e-05 s⁻¹"
  }
]

Endpoint output: self-cleavage kobs at 40 uM GlcN6P of A24U . Value?
0.002 s⁻¹

Name the recorded self-cleavage kobs at 40 uM GlcN6P for C8U C16U A52G .
< 1e-05 s⁻¹

Please look up its self-cleavage kobs at 40 uM GlcN6P: G35C A48G A52C C70G
< 1e-05 s⁻¹

Look up self-cleavage kobs at 40 uM GlcN6P for this variant: A6G U31C G41U A52U
< 1e-05 s⁻¹

Looking for the measured self-cleavage kobs at 40 uM GlcN6P of A12U U30G G51C , can you help?
< 1e-05 s⁻¹

I'd like to know its self-cleavage kobs at 40 uM GlcN6P. The variant in question is U30C G35A
< 1e-05 s⁻¹

Could you share which self-cleavage kobs at 40 uM GlcN6P value was measured for A14G G62U ?
< 1e-05 s⁻¹

Tell me the measured self-cleavage kobs at 40 uM GlcN6P of U31G U55G , please.
0.000486 s⁻¹

What measured self-cleavage kobs at 40 uM GlcN6P goes with A14G G44U A64U ?
< 1e-05 s⁻¹

Need self-cleavage kobs at 40 uM GlcN6P, item A15C U31A
0.000156 s⁻¹

Using the record for C8U C16U C50G G60A G66U , report its self-cleavage kobs at 40 uM GlcN6P.
0.000197 s⁻¹

Entry A36C U49C U65A has what self-cleavage kobs at 40 uM GlcN6P?
< 1e-05 s⁻¹

Endpoint output: self-cleavage kobs at 40 uM GlcN6P of A33U A48U . Value?
< 1e-05 s⁻¹

Entry under review: A6G A14G A39C . Reported self-cleavage kobs at 40 uM GlcN6P?
< 1e-05 s⁻¹

Quick check: self-cleavage kobs at 40 uM GlcN6P of G51A U65C ?
< 1e-05 s⁻¹

Recorded self-cleavage kobs at 40 uM GlcN6P for C8G C11G U30C C34G G44U G62A , please?
< 1e-05 s⁻¹

Any idea what self-cleavage kobs at 40 uM GlcN6P was measured for A12U C50G G51C ?
< 1e-05 s⁻¹

I am curious: what self-cleavage kobs at 40 uM GlcN6P value has been reported for C10G A15G U30G G63U ?
< 1e-05 s⁻¹
